# assayed system: 5-HT1D receptors
# measurement protocol: Affinity for 5-HT1D receptors (3H-5HT binding, sheep caudate membranes)
# conditions used: sheep caudate nuclei membranes; 3H-5HT; 25° C., 30 min
Where a name gives a salt, the structure may show the parent alone.
assay metric: IC50

molecule: NCCc1c[nH]c2ccc(OCC(=O)N3CCN(c4ccc(NC(=O)c5ccccc5)cc4)CC3)cc12 [Example 4, hydrochloride]
IC50: 1 nM
//
molecule: NCCc1c[nH]c2ccc(OCC(=O)N3CCN(c4ccc(NS(=O)(=O)c5cccs5)cc4)CC3)cc12 [Example 8, hydrochloride]
IC50: 1.2 nM
//
molecule: CS(=O)(=O)N(c1ccc(N2CCN(C(=O)COc3ccc4[nH]cc(CCN)c4c3)CC2)cc1)S(C)(=O)=O [Example 6, hydrochloride]
IC50: 4.3 nM
//
molecule: CCS(=O)(=O)Nc1ccc(N2CCN(C(=O)COc3ccc4[nH]cc(CCN)c4c3)CC2)cc1 [Example 7, hydrochloride]
IC50: 1.6 nM
//
molecule: NCCc1c[nH]c2ccc(OCC(=O)N3CCN(c4ccccc4[N+](=O)[O-])CC3)cc12 [Example 14, hydrochloride]
IC50: 1 nM

For every item below, please supply its IC50.
1. CCOC(=O)Nc1ccc(N2CCN(C(=O)COc3ccc4[nH]cc(CCN)c4c3)CC2)cc1 [Example 11, hydrochloride]
2. Cc1noc(C)c1S(=O)(=O)Nc1ccc(N2CCN(C(=O)COc3ccc4[nH]cc(CCN)c4c3)CC2)cc1 [Example 10, hydrochloride]

Return:
2.4 nM
1 nM

These data points were gathered from patent US5726177A.
